- Tested on: INS-1E rat beta cells, no cytokines, CellTiter-Glo ATP, 48 h
- protocolText: cytokine-free beta-cell viability effect – INS-1E rat cells, ATP luminescence, cherry pick, counter-screen for beta-cell apoptosis protection project, dose response (AID 463229)
For each record, write down the corresponding AC50.

Here are 4 compounds together with their reported answers.
Cc1c(Cl)c([N+](=O)[O-])nn1Cc1ccc(C(=O)N/N=C\c2cc(Cl)ccc2O)o1; 6.95 µM
S=C(c1cn(CCOc2cccc3ccccc23)c2ccccc12)N1CCCC1; 7.48 µM
CCCCCc1ccc(OCCCC[n+]2ccc(C)cc2)c(CCCCC)c1; 2.34 µM
CCN1CCN(Cc2ccc(NC(=O)c3ccc(C)c(NC(=O)c4c[nH]c5cc(C(F)(F)F)ccc5c4=O)c3)cc2C(F)(F)F)CC1; 7.07 µM

Now for the compound whose AC50 we want.
In: For the compound CC(C)Nc1ccc(Nc2ccnc3cc4ccccc4cc23)cc1 , what AC50 is on record?
Out: 7.2 µM
